# System: 786-0 renal
# EXPERIMENT: NCI-60 one-dose screen, 48 h
# EXPERIMENTAL_CONDITIONS: 10 µM unless noted
The panel holds about 83,000 compounds, 20% with a hit somewhere; the sample as a whole holds those more often. Active and inactive are the calls of the source. How the source made its calls: active means growth percent below 10; inactive means the rest.
Could you please pick one outcome from this set? active, inactive

| COMPOUND | ASSIGNED_CATEGORY |
| --- | --- |
| CCOC(=O)C(Cc1cc(I)c(O)c(I)c1)NC(=O)c1ccccc1 (stereo unspecified) | inactive |
| C/C(=C(/c1ccc(O)cc1)c1ccc(Cl)cc1)c1ccccc1 | active |
| ClC1=C2NC=NC2n2c(nnc2-c2ccc(Cl)cc2)N1 (stereo unspecified) | inactive |
| COc1ccc(N(Cc2cc(OC)c(OC)c(OC)c2)C2OC(=O)c3ccccc32)cc1 (stereo unspecified) | inactive |
| O=C(O)c1c([N+](=O)[O-])cnc2ccccc12 | inactive |

# fetch the recorded call for O=[N+]([O-])c1cccc(-c2nc3sccn3c2-c2ccnc(NCCNS(=O)(=O)c3ccc(C(F)(F)F)cc3)n2)c1 here inactive

Outcome? COc1ccc2nc3cc(Cl)ccc3c(N3CCN(c4nccc(Nc5ccccc5)n4)CC3)c2c1 inactive

Per the assay record, what outcome was assigned to O=C(O)c1cccnc1Br ? inactive

What outcome does the record of this test show for CC[C@H](Nc1ncnc(N)c1C(N)=O)c1nc2cccc(NCc3ccc(C(=O)NO)cc3)c2c(=O)n1-c1ccccc1 ? inactive

Dear all, I need the recorded test outcome for N#CC1=C(N)Oc2c(ccc3ccccc23)C1c1cccs1 (stereo unspecified) , thank you. inactive

Could you please tell me the result logged for COc1cccc(-n2cc(-c3nc(Nc4cc(C)[nH]n4)c4ccccc4n3)nn2)c1 in this assay? inactive

Record lookup: outcome of this test for Cc1ccc2c(c1)C(=O)c1c-2c(OCCCN(C)C)nc2ccccc12 ? inactive

Returns: the outcome recorded for COc1ccc2nc3cc(Cl)ccc3c(N3CCN(c4ccnc(N5CCN(C)CC5)n4)CC3)c2c1 in this assay. inactive

Field: outcome | Entry: CCCCCCCCCCCCCCCCNCCC[C@@H](C)[C@H]1CC[C@H]2[C@@H]3[C@H](OCCCN)C[C@@H]4C[C@H](OCCCN)CC[C@]4(C)[C@H]3C[C@H](OCCCN)[C@]12C active

Test call for this compound, please: C=C1CC[C@@H]2[C@](C)(COC(C)=O)[C@H](OC(C)=O)CC[C@@]2(C)[C@@H]1CC(NCc1ccc(F)cc1)C1=CCOC1=O (stereo partly specified) inactive

Returns: the outcome recorded for CCC(=O)Oc1ccc(/C(=C(\C)c2ccccc2)c2ccc(OCCN(CC)CC)cc2)cc1 in this assay. inactive

---

# System: CCRF-CEM leukemia
# EXPERIMENT: NCI-60 one-dose screen, 48 h (100 = growth as untreated, 0 = no growth, -100 = all killed)
# EXPERIMENTAL_CONDITIONS: 10 µM unless noted
This is part of a sample that, as a whole, favours compounds with a hit. Of some 83,000 tested, about 20% had one in any assay. Activity calls are given as the source filed them. The calls were made as follows: active = growth percent below 10; inactive = the rest.
ATTRIBUTE_MEASURED: growth

Reference set (2 entries):
| QUERY_SMILES | growth |
| --- | --- |
| O=C(Cn1cc(CN2C(=O)c3ccccc3S2(=O)=O)nn1)Nc1ccc([N+](=O)[O-])cc1Cl | 93.4% (inactive) |
| O=C(N/N=C/c1ccc(O)cc1O)c1cccnc1 | 5.78% (active) |

Dear colleague, please send me the reported growth for CC/C=C\C[C@H](O)C/C=C1/C(=O)C=C[C@@H]1C/C=C\CCCC(=O)OC(C)C when you can. -28.8% (active)

Assign growth to the following record: COc1ccc(S(=O)(=O)NCCCNc2nccc(-c3c(-c4cccc(N)c4)nc4sccn34)n2)cc1 78.4% (inactive)

---

# Test system: RXF 393 renal
# EXPERIMENT: NCI-60 one-dose screen, 48 h
# EXPERIMENTAL_CONDITIONS: 10 µM unless noted
The panel holds about 83,000 compounds, 20% with a hit somewhere; the sample as a whole holds those more often. Activity calls are given as the source filed them. Rule for the calls: active = growth percent below 10; inactive = the rest.
Allowed answers: y = active, n = inactive

Recorded results for 5 compounds are shown here.
| COMPOUND | ASSAY_SYSTEM | ASSIGNED_CATEGORY |
| --- | --- | --- |
| COc1ccc2nc3cc(Cl)ccc3c(N3CCN(c4ccnc(N5CCOCC5)n4)CC3)c2c1 | RXF 393 renal | y |
| CN1/C(=C\C=C\C2=[N+](C)c3ccccc3C2(C)C)C(C)(C)c2ccccc21 | RXF 393 renal | y |
| O=C1OC2C(I)C3CC2C1C3c1ccccc1 (stereo unspecified) | RXF 393 renal | n |
| CS(=O)(=O)c1ccc(-c2cnc3ccc(-c4cccc(S(C)(=O)=O)c4)nn23)cc1 | RXF 393 renal | y |
| CCOC(=O)c1c2c(n3ccc(NC(=O)CCN4CCCCC4)cc13)C(=O)c1ncccc1C2=O | RXF 393 renal | n |

Here's the next entry for you.
Outcome logged for O=c1cc(-c2ccccc2)[nH]c2ccccc12 in this assay: n

---

Known growth of a selection of molecules
# Tested on: TK-10 renal
# EXPERIMENT: NCI-60 one-dose screen, 48 h (100 = growth as untreated, 0 = no growth, -100 = all killed)
# EXPERIMENTAL_CONDITIONS: 10 µM unless noted
About 83,000 compounds went through this panel and 20% of them were active in at least one assay; those are over-represented in the sample as a whole.
# unit: % | format: bare number

Record excerpt, results attached:
| MOLECULE | growth, % |
| --- | --- |
| Cc1csc2ccc(Cl)cc12 | 99.4 |
| CCCCCCCCCCCCN1CCCC(C)C1 (configuration not stated) | 87.9 |
| CCN(CC)CC(O)CNc1c2ccc([N+](=O)[O-])cc2nc2cc(OC)c(OC)cc12 (configuration not stated) | 2.27 |
| COc1cc(-c2cnc3nonc3n2)c(OC)c2c1OCO2 | 107 |
| CC1=C(NCCN2CCCC2)C(=O)c2c(OCc3cccc(Cl)c3)cccc2C1=O | 74.1 |
| C[C@@H]1CCC2=C(CCC[C@]2(C)C(=O)O)[C@@]1(C)CCc1ccoc1 | 92.3 |
| COc1cnc2c(c1)C(=O)c1c-2n(CCCN2CCNCC2)c(=O)c2cc([N+](=O)[O-])ccc12 | 32.4 |
| CN1/C(=C\C=C\C2=[N+](C)c3ccccc3C2(C)C)C(C)(C)c2ccccc21 | 5.75 |

Please look at this molecule and report its growth: COc1ccc(-c2c3c(nc4n[nH]c(-c5ccc(Cl)cc5)c24)-c2ccccc2C(=O)C3=O)cc1 -28.7

# return recorded growth for input Nc1c(C(=O)Nc2cccc3c2OCCO3)sc2nc3c(cc12)C(=O)CCC3 73.3

---

# System: SK-MEL-28 melanoma
# EXPERIMENT: NCI-60 one-dose screen, 48 h
# EXPERIMENTAL_CONDITIONS: 10 µM unless noted
The panel holds about 83,000 compounds, 20% with a hit somewhere; the sample as a whole holds those more often. Calls of active or inactive are those of the source. How the source made its calls: active means growth percent below 10; inactive means the rest.
// allowed return values: class 1 = active, class 0 = inactive

| MOLECULE | ASSAY_SYSTEM | ASSIGNED_CATEGORY |
| --- | --- | --- |
| O=C(Cc1ccccc1)c1ccc(Cl)cc1 | SK-MEL-28 melanoma | class 0 |
| COc1cc(NCCCCN=C(N)NC(N)=NC(C)C)c2ncccc2c1 | SK-MEL-28 melanoma | class 0 |
| CCN(CC)c1ccc(/C=C/C2=[N+](C)c3ccccc3C2(C)C)cc1 | SK-MEL-28 melanoma | class 0 |
| O=C1Nc2ccccc2/C1=C/C(=N/c1nnc(-c2ccc(Cl)cc2)s1)c1ccccc1 | SK-MEL-28 melanoma | class 0 |
| CCCNc1nc(SC)nc(-c2cccc(N)c2)c1C#N | SK-MEL-28 melanoma | class 0 |

Query: recorded result category for COc1cc(-c2cc(-c3nc4ccc(Cl)cc4[nH]3)[nH]n2)cc(OC)c1OC in this test class 0

Each molecule tested received a call. Report the one for C=C1CC[C@@H]2[C@](C)(COC(C)=O)[C@H](OC(C)=O)CC[C@@]2(C)[C@@H]1CC(NCc1ccc(F)cc1)C1=CCOC1=O (stereo not given in full) . class 0

Each molecule tested received a call. Report the one for COc1cc2c(cc1O)CCc1cc(O)cc(OC)c1-2 . class 0

Answer briefly: the call reported for CN1CCN(Cc2ccc(NC(=O)c3[nH]ncc3Nc3ncnc4sccc34)cc2)CC1 in this assay. class 0

What call does the record list for CC[C@@H](C)OC(=O)c1nn(C(C)=O)c2ccccc12 ? class 0

Dear colleague, could you share the recorded outcome for CCOC(=O)C(Cc1cc(I)c(O)c(I)c1)NC(=O)c1ccccc1 (stereo not given) when you have a moment? class 0
